- experimental_target: Human GPR119 (Homo sapiens, UniProt Q8TDV5)
- Construct: host or cells: HEK293 (ATCC)
- Sequence (Q8TDV5 whole entry): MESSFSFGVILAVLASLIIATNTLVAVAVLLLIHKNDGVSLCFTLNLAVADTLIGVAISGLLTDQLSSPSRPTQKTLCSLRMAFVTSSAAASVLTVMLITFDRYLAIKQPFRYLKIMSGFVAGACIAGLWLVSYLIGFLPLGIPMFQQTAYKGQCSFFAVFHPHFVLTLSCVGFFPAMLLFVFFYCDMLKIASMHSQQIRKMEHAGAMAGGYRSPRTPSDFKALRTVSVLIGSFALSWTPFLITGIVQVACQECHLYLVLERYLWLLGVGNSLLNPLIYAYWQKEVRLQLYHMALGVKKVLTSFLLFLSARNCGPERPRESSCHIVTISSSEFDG
- test_method_notes: Human GPR119 activation assay (cAMP, HTRF)
- Format: cell-based
- condition_context: 1 h; 10 nM; HEK293 cells transiently expressing human GPR119; relative to maximum effect of OEA; read-out: hGPR119 activation ability (cAMP assay) Relative Response % vs OEA
Note to self: values exactly at 200% are 1 (yes). So Emax at 0.01 µM at or above 200% is 1 (yes), below is 0 (no).

molecule: CCc1cnc(N2CCC(CCCOc3cc(F)c(C4=NC[C@H](CO)O4)c(F)c3)CC2)nc1 [Example 7]
class_assignment: 0 (no)
--
molecule: CC(C)c1noc(N2CCC(CCCOc3cc(F)c(C4=N[C@H](C)CO4)c(F)c3)CC2)n1 [Example 10]
class_assignment: 1 (yes)
--
molecule: CCc1cnc(N2CCC(CCCOc3cc(F)c(-c4noc(C)n4)c(F)c3)CC2)nc1 [Example 13]
class_assignment: 0 (no)
--
molecule: CCc1cnc(N2CCC(CCCOc3cc(F)c(-c4noc(CO)n4)c(F)c3)CC2)nc1 [Example 17]
class_assignment: 1 (yes)
--
molecule: CCc1cnc(N2CCC(CCCOc3cc(F)c(-c4noc(C[C@@H](C)O)n4)c(F)c3)CC2)nc1 [Example 20]
class_assignment: 1 (yes)
--
molecule: Cc1nnc(-c2c(F)cc(OCCCC3CCN(c4cnc(Cl)cn4)CC3)cc2F)o1 [Example 49]
class_assignment: 0 (no)
--
molecule: CCCc1noc(N2CCC(CCCOc3cc(F)c(-c4nnc(C(C)C)o4)c(F)c3)CC2)n1 [Example 54]
class_assignment: 1 (yes)
